Measured values drawn from ChEMBL document CHEMBL5543075 for this set.

Biological target: Glutamate NMDA receptor; GRIN1/GRIN2B (Homo sapiens, UniProt Q05586+Q13224)
Test: Inhibition of recombinant human GluN1/GluN2B receptor expressed in HEK293 cells assessed as reduction in glutamate induced current at 1 uM at -60 mV holding potential by electrophysiology assay relative to control
Format: cell-based
Returns fulfilled if the recorded inhibition is greater than or equal to 20%, and not fulfilled otherwise.

Smi: CC(=O)c1ccc(Oc2ccc3nc4c(c(N)c3c2)CCC4)cc1
Discrete Label: not fulfilled

Smi: Nc1c2c(nc3ccc(Oc4ccccc4)cc13)CCC2
Discrete Label: fulfilled

Smi: COc1ccc(Oc2ccc3nc4c(c(N)c3c2)CCCCC4)cc1
Discrete Label: fulfilled

Smi: Nc1c2c(nc3ccc(Oc4ccc(Cl)cc4)cc13)CCCC2
Discrete Label: not fulfilled

Smi: COc1ccccc1Oc1ccc2nc3c(c(N)c2c1)CCC3.Cl
Discrete Label: fulfilled

Smi: Cc1cccc(Oc2ccc3nc4c(c(N)c3c2)CCC4)c1
Discrete Label: not fulfilled

----------
Read-out record for Acetylcholinesterase (Homo sapiens): IC50

Smi: Nc1c2c(nc3ccc(Oc4ccc(Cl)cc4)cc13)CCCCC2
Unit: µM
IC50: 4.22
--
Smi: COc1ccccc1Oc1ccc2nc3c(c(N)c2c1)CCCCC3
Unit: µM
IC50: 9.62
--
Smi: CC(=O)c1ccc(Oc2ccc3nc4c(c(N)c3c2)CCC4)cc1
Unit: µM
IC50: 5.76
